tested on: Sin3 complex; test: Chemoproteomic binding profiling, K562 cell extract, SAHA/ITF2357 probe matrix (Kd app); design: species or system human; conditions: protein SAP30, read-out: Kd^app SAP30
PROPERTY_LABEL: Kd

smiles_repr=COc1ccc(Cn2ccc3ccc(C(=O)NO)cc32)cc1 property_label=Kd result="> 59.7 µM"
smiles_repr=Nc1ccccc1NC(=O)CCCCCCC(=O)Nc1ccccc1 property_label=Kd result="> 85 µM"
smiles_repr=CC(/C=C/C(=O)NO)=C\[C@@H](C)C(=O)c1ccc(N(C)C)cc1 property_label=Kd result="0.03 µM"

Okay, now this compound:
For `Cn1cc(C(=O)Cc2ccccc2)cc1C=CC(=O)NO` , write its Kd.
164 µM

----------
biological target: HDAC3-NCoR complex (Homo sapiens, UniProt O15379); assay: Chemoproteomic binding profiling, K562 cell extract, SAHA/ITF2357 probe matrix (Kd app); settings: protein TBL1XR1, read-out: Kd^app TBL1XR1
Sequence (O15379 whole entry, one chain of several): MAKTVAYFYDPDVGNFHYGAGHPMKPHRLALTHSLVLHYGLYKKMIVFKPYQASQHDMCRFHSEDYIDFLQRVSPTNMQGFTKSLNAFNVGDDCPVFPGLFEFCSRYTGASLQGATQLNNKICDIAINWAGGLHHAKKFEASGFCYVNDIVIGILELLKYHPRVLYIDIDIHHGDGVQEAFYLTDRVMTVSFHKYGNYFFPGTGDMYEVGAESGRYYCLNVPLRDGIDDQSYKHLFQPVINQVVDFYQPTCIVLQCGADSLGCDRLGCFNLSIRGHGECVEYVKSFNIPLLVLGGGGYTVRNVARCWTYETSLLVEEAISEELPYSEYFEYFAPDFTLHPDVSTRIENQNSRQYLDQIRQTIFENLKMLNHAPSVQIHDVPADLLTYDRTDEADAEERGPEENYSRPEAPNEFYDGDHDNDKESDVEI
PROPERTY_LABEL: Kd (µM)
Respond numerically; units are µM and should not be typed.

smiles_repr=Nc1ccccc1NC(=O)CCCCCCC(=O)Nc1ccccc1 numeric_readout=4

Okay, now this molecule:
Param request: Kd | system HDAC3-NCoR complex (Homo sapiens, UniProt O15379) | item `CCCCOc1ccc(CC(=O)NO)cc1`
530

----------
target: ALDH2 (Homo sapiens); construct: endogenous in cells; experiment: Competition binding assay in cell lysate, affinity matrix, MS; conditions: ALDH2; Molt-4 cell lysate; read-out: IC50
Sequence (P05091 18-517): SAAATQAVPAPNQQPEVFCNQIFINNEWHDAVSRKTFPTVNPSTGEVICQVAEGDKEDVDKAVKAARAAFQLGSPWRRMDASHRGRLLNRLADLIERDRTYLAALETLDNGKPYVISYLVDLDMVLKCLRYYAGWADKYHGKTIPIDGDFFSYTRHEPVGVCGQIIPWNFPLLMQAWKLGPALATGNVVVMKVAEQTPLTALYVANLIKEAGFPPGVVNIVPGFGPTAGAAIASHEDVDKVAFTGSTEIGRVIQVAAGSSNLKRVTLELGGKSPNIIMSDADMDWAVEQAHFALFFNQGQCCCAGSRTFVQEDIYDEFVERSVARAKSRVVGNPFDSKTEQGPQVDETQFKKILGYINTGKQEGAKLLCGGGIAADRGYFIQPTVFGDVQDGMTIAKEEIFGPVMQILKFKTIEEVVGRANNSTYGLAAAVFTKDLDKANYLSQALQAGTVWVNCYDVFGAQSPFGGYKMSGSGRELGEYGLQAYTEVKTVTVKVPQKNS
PROPERTY_LABEL: IC50 (nM)
Respond numerically; units are nM and should not be typed.

For `CC(/C=C/C(=O)NO)=C\[C@@H](C)C(=O)c1ccc(N(C)C)cc1` , write its IC50.
3000

----------
biological target: BZW2 (Homo sapiens, UniProt Q9Y6E2); construct: endogenous in cells; test: Competition binding assay in cell lysate, affinity matrix, MS; details: IC50, BZW2; mix of Jurkat and Ramos cell lysates
Sequence (Q9Y6E2 whole entry): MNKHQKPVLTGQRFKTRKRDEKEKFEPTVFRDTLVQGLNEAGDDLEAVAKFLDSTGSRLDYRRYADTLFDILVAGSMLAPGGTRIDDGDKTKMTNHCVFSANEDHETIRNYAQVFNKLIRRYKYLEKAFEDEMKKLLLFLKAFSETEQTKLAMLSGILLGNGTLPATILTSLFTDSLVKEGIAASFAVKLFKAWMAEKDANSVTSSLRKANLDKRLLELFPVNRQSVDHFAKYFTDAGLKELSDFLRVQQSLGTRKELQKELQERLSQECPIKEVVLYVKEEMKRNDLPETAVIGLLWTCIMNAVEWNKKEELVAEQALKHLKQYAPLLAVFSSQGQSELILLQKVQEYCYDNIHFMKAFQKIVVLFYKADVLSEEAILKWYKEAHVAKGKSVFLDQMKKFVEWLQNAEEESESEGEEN
PROPERTY_LABEL: IC50 (µM)
Respond numerically; units are µM and should not be typed.

For O=C(CCCCCCC(=O)Nc1ccccc1)NO [SAHA, suberoylanilide hydroxamic acid] , write its IC50.
10

----------
molecular target: non-HDAC targets (e.g. BZW2, ISOC2, aldehyde dehydrogenases) (Homo sapiens)
PROPERTY_LABEL: pKd
Just the number, please; pKd means minus log10 of the concentration in mol/L.

Example results:
molecule="O=C(/C=C/c1cccc(S(=O)(=O)Nc2ccccc2)c1)NO [belinostat]" target_under_test="non-HDAC targets (e.g. BZW2, ISOC2, aldehyde dehydrogenases) (Homo sapiens)" property_label=pKd numeric_readout=5.46
molecule="COc1ccc(Cn2ccc3ccc(C(=O)NO)cc32)cc1 [PCI-34051]" target_under_test="non-HDAC targets (e.g. BZW2, ISOC2, aldehyde dehydrogenases) (Homo sapiens)" property_label=pKd numeric_readout=4.22
molecule="Cc1[nH]c2ccccc2c1CCNCc1ccc(/C=C/C(=O)NO)cc1 [panobinostat]" target_under_test="non-HDAC targets (e.g. BZW2, ISOC2, aldehyde dehydrogenases) (Homo sapiens)" property_label=pKd numeric_readout=4.92

For Cn1cc(C(=O)Cc2ccccc2)cc1C=CC(=O)NO [MC-1293] , write its pKd.
4.40

For CCCCOc1ccc(CC(=O)NO)cc1 [bufexamac] , write its pKd.
3.52

For O=C(/C=C/c1ccc(CN(CCO)CCc2c[nH]c3ccccc23)cc1)NO [dacinostat] , write its pKd.
5.82

----------
biological target: MiDAC complex (HDAC1/2, DNTTIP1, CDYL, MIDEAS) (Homo sapiens, UniProt Q13547+Q92769); test: Chemoproteomic binding profiling, K562 cell extract, SAHA/ITF2357 probe matrix (Kd app); design: Kd^app MIDEAS; other: protein MIDEAS; MiDAC complex; Kd^app DNTTIP1; other: protein DNTTIP1; settings: protein DNTTIP1, read-out: Kd^app DNTTIP1
Sequence (Q13547 whole entry): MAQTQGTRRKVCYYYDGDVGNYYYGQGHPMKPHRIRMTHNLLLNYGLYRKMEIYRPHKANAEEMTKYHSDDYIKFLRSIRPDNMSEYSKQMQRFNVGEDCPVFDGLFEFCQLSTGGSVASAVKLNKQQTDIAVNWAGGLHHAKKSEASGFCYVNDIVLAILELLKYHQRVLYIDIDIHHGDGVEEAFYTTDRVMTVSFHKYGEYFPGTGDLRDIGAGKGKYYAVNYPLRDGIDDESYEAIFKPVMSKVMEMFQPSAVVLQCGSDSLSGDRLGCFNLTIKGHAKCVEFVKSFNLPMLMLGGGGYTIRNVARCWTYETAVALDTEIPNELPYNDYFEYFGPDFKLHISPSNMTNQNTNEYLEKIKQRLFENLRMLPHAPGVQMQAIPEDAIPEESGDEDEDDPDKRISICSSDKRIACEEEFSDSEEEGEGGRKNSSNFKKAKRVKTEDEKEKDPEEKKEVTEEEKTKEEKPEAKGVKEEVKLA
Sequence (Q92769 whole entry): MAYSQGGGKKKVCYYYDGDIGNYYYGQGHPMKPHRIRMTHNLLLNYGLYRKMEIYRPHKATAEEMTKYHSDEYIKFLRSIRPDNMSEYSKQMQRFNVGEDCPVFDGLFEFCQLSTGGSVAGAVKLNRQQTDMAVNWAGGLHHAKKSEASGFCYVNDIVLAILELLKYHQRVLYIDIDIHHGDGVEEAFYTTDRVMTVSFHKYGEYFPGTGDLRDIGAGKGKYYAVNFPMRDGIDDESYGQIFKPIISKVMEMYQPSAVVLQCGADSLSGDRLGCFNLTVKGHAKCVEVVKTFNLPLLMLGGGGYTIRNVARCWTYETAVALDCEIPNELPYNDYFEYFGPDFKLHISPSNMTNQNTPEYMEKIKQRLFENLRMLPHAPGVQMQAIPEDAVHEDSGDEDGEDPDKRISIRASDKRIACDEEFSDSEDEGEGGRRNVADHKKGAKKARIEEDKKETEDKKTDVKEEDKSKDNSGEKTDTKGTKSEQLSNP
Sequence (Q9H147 whole entry partner): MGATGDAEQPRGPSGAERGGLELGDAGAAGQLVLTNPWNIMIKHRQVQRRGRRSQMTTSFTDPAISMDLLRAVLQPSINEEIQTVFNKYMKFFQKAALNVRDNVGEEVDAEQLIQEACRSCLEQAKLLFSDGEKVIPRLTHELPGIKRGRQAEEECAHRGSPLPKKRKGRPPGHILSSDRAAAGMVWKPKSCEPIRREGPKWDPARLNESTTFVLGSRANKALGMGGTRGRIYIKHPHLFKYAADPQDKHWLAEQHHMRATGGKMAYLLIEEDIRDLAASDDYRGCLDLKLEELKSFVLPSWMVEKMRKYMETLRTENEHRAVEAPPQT
Sequence (Q6PJG2 whole entry partner): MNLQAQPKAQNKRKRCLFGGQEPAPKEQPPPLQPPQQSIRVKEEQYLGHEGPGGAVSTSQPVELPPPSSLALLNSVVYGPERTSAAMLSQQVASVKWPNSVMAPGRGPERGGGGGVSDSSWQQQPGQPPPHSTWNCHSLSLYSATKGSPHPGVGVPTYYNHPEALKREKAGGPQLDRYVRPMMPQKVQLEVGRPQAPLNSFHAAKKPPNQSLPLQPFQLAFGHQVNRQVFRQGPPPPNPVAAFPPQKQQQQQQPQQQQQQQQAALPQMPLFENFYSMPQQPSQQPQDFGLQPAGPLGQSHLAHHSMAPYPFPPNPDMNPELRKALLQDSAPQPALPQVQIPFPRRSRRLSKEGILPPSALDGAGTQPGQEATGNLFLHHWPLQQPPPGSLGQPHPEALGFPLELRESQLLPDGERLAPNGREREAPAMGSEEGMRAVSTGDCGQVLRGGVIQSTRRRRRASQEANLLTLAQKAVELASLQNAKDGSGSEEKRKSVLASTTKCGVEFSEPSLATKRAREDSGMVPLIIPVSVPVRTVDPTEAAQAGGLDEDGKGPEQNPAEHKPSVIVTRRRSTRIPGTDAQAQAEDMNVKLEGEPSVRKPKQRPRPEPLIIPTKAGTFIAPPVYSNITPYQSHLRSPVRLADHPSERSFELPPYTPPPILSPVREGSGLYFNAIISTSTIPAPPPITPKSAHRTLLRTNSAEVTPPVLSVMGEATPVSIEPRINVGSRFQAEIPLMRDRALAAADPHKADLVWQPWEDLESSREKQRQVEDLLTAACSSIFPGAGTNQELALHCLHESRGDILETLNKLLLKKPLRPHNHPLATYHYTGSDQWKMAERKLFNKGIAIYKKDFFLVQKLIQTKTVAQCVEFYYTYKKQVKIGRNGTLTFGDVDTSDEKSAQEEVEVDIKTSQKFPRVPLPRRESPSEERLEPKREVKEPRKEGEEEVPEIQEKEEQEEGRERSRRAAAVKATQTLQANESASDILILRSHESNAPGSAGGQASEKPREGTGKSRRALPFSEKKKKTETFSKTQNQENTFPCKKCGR
Sequence (Q9Y232 whole entry partner): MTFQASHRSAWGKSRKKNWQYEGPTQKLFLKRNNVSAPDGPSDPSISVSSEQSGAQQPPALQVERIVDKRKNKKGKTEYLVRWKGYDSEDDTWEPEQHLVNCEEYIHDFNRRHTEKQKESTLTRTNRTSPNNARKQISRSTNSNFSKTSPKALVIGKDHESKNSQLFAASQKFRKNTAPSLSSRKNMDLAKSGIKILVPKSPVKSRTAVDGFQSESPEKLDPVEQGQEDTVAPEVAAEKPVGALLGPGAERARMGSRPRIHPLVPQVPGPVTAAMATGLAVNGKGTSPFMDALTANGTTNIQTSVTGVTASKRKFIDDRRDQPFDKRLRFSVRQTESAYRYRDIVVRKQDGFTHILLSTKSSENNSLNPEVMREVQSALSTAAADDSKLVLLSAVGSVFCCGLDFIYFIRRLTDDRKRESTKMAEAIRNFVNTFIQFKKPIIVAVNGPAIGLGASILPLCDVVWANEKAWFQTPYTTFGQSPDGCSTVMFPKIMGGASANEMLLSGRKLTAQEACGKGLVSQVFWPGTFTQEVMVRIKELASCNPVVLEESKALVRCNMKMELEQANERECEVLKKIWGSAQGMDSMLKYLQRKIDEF
PROPERTY_LABEL: Kd (µM)
Respond numerically; units are µM and should not be typed.

For `CCCCOc1ccc(CC(=O)NO)cc1` , write its Kd.
418

----------
// reported Kd for each item listed
Target: non-HDAC targets (e.g. BZW2, ISOC2, aldehyde dehydrogenases) (Homo sapiens, UniProt O94788)
Construct: endogenous in cells; host or cells: K562 whole cell extract
Sequence (O94788 1-518): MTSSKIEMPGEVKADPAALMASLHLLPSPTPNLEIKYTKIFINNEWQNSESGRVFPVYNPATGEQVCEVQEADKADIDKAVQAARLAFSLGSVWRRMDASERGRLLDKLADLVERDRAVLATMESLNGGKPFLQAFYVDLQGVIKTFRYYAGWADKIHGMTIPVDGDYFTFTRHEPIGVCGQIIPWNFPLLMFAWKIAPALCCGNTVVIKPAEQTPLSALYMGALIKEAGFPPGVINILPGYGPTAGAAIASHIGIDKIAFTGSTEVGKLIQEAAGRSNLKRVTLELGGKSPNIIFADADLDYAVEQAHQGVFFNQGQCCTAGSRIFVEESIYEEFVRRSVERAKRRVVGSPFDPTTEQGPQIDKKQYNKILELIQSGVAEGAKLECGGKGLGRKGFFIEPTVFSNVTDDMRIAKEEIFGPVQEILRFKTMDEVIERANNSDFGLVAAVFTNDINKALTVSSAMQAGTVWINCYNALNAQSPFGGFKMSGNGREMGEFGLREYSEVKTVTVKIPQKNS
Test: Chemoproteomic binding profiling, K562 cell extract, SAHA/ITF2357 probe matrix (Kd app)
Details: protein ALDH1A2; selected HDACi off-targets

compound=Cn1cc(C(=O)Cc2ccccc2)cc1C=CC(=O)NO result="> 10 µM"
compound=O=C(/C=C/c1ccc(CN(CCO)CCc2c[nH]c3ccccc23)cc1)NO result="> 10 µM"
compound=CCCCOc1ccc(CC(=O)NO)cc1 result="3 µM"

For `Nc1ccccc1NC(=O)c1ccc(CNC(=O)OCc2cccnc2)cc1` , write its Kd.
> 300 µM

For `O=C(CCCCCN1C(=O)c2cccc3cccc(c23)C1=O)NO` , write its Kd.
5.38 µM

For `CN(C)Cc1c(C(=O)NCCOc2ccc(C(=O)NO)cc2)oc2ccccc12` , write its Kd.
> 10 µM

For `Nc1ccccc1NC(=O)CCCCCCC(=O)Nc1ccccc1` , write its Kd.
> 85 µM

For `CC(=O)Nc1ccc(C(=O)Nc2ccccc2N)cc1` , write its Kd.
> 85 µM

For `Cc1[nH]c2ccccc2c1CCNCc1ccc(/C=C/C(=O)NO)cc1` , write its Kd.
> 10 µM

For `Nc1ccccc1NC(=O)c1ccc(CNc2nccc(-c3cccnc3)n2)cc1` , write its Kd.
230 µM

For `COc1ccc(Cn2ccc3ccc(C(=O)NO)cc32)cc1` , write its Kd.
> 59.7 µM

For `O=C(/C=C/c1cccc(S(=O)(=O)Nc2ccccc2)c1)NO` , write its Kd.
> 10 µM

For CCCC(CCC)C(=O)O [valproate, valproic acid] , write its Kd.
> 10 µM

----------
target: HDAC3-NCoR complex (Homo sapiens, UniProt O15379); assay: Chemoproteomic binding profiling, K562 cell extract, SAHA/ITF2357 probe matrix (Kd app); conditions: protein TBL1X, read-out: Kd^app TBL1X
// reported pKd for each item listed
Just the number, please; pKd means minus log10 of the concentration in mol/L.

smiles_repr=Nc1ccccc1NC(=O)CCCCCCC(=O)Nc1ccccc1 numeric_readout=5.40

Okay, now this molecule:
For `CCCCOc1ccc(CC(=O)NO)cc1` , write its pKd.
3.27

----------
tested on: CoREST complex; experiment: Chemoproteomic binding profiling, K562 cell extract, SAHA/ITF2357 probe matrix (Kd app); parameters: species or system human; details: read-out: Kd^app PHF21A
PROPERTY_LABEL: Kd (µM)
Respond numerically; units are µM and should not be typed.

For Nc1ccccc1NC(=O)c1ccc(CNc2nccc(-c3cccnc3)n2)cc1 [Mocetinostat] , write its Kd.
189

----------
biological target: PPP4C (Homo sapiens); construct: endogenous in cells; assay: Competition binding assay in cell lysate, affinity matrix, MS; settings: read-out: IC50
Sequence (P60510 whole entry): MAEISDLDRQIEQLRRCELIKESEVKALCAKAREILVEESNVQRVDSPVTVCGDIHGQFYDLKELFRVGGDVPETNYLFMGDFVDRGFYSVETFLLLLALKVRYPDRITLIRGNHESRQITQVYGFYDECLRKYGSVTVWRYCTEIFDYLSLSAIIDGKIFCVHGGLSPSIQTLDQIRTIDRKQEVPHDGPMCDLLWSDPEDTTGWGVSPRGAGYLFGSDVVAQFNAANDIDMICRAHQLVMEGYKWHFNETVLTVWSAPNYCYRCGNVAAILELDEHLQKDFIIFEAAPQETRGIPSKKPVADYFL
pIC50: −log10 of the molar value.
PROPERTY_LABEL: pIC50

compound="Nc1ccccc1NC(=O)c1ccc(CNC(=O)OCc2cccnc2)cc1 [MS-275]" target_under_test="PPP4C (Homo sapiens)" property_label=pIC50 result="≤ 3.52"

Okay, now this compound:
For O=C(CCCCCCC(=O)Nc1ccccc1)NO [SAHA, suberoylanilide hydroxamic acid] , write its pIC50.
≤ 5.00

----------
biological target: non-HDAC targets (e.g. BZW2, ISOC2, aldehyde dehydrogenases) (Homo sapiens); construct: endogenous in cells; assay: Chemoproteomic binding profiling, K562 cell extract, SAHA/ITF2357 probe matrix (Kd app); conditions: protein BZW2; selected HDACi off-targets
Criterion: Kd strictly less than 4 µM. Met: true (1). Not met: false (0).

compound=Cc1[nH]c2ccccc2c1CCNCc1ccc(/C=C/C(=O)NO)cc1 class_assignment="false (0)"
compound=CN(C)Cc1c(C(=O)NCCOc2ccc(C(=O)NO)cc2)oc2ccccc12 class_assignment="false (0)"
compound="CCCC(CCC)C(=O)O [valproate, valproic acid]" class_assignment="false (0)"
compound=CC(=O)Nc1ccc(C(=O)Nc2ccccc2N)cc1 class_assignment="false (0)"

For this compound, is Kd lower than 4 µM? `Nc1ccccc1NC(=O)c1ccc(CNc2nccc(-c3cccnc3)n2)cc1`
false (0)

For this compound, is Kd lower than 4 µM? `CCCCOc1ccc(CC(=O)NO)cc1`
true (1)

For this compound, is Kd lower than 4 µM? `COc1ccc(Cn2ccc3ccc(C(=O)NO)cc32)cc1`
false (0)

For this compound, is Kd lower than 4 µM? `O=C(/C=C/c1ccc(CN(CCO)CCc2c[nH]c3ccccc23)cc1)NO`
true (1)

For this compound, is Kd lower than 4 µM? `O=C(CCCCCN1C(=O)c2cccc3cccc(c23)C1=O)NO`
false (0)

For this compound, is Kd lower than 4 µM? `Nc1ccccc1NC(=O)CCCCCCC(=O)Nc1ccccc1`
false (0)

For this compound, is Kd lower than 4 µM? `O=C(/C=C/c1cccc(S(=O)(=O)Nc2ccccc2)c1)NO`
true (1)

For this compound, is Kd lower than 4 µM? `Nc1ccccc1NC(=O)c1ccc(CNC(=O)OCc2cccnc2)cc1`
false (0)
